Please respond with reported apparent KD of K4 kissing-loop reporter for every item in the list.
Tested on: K4 kissing-loop RNA reporter;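 note: bound reporter read as fluorescence of individual clusters on recovered sequencing chips by microscopy, with normalized cluster intensities fitted with a binding model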
METHOD_NOTES: apparent KD of K4 kissing-loop reporter; higher = weaker reporter binding
CONDITION_INFO: Eterna round: R107; input ligand: arginine 13.2 mM
Numbers only, in nM.

Example entries begin here.
>  <SEQUENCE_CODE>
AAGCAGUCACUCAAAGCCAUCGAAGAUGGUCGAGGACCGGUACGGCCGCCACUCGGAGUGAUGUUCCGAAGACUGCAAAAUAAAA

>  <VAL>
394

$$$$
>  <SEQUENCE_CODE>
UGAUAGGACAGAAGGAGCGGAAGUGAUGUUUCCAAAAGGCUAAGGUGUCAAAAGACACCCUUCCAGGUAGGUCGCUGUCCUAUCU

>  <VAL>
274

$$$$
>  <SEQUENCE_CODE>
AUUCGCAGUGAUGUUGCGAUUCCGUUGAGGGAGGAUAUUGGUAAUACAAGAAGGCCCGGCUGCGGGUGAUGUUCGCAUUAGGGCC [Exclusion FMN A GF18]

>  <VAL>
143

$$$$

Give me apparent KD of K4 kissing-loop reporter for each of these sequences, listed below.
1. CACUCGGUAUCAGAUACCAGACUAACGAUACCGAGUGUAUCGGGUAGUGAUGUUACCAUAGUCCCUUGGCAGCUGAUAUACCAUA [Theo B SS t9]
2. AAUAAUGGAGUGAUGUUCCAGUAAUGGGAUACCAGACAUGAAAAUGUCCCUUGGCAGCUCAAAGGUCUAGUGAUGUUAGAAAGAA [KL-SSTheo-A5 #Double Kiss]
3. UUUAACGAGUGAUGUUCGAAGAGUAAUGGUGAGGAUAUCGAUUUUUCGAGAAGGCGCCUCGAAGUGAUACGAAAGUAUCGCUUCG [FMN A 6]

[242, 300, 247]
